- Test system: Klebsiella pneumoniae
- Assay summary: Antibacterial activity against Klebsiella pneumoniae ATCC 700603 assessed as reduction in microbial growth after 24 hrs by broth dilution method
- Format: functional
Measured parameter: MIC (µg/mL)
Give a bare numeral; the unit µg/mL is implied.

Read off the recorded MIC for CN[C@H](CC(C)C)C(=O)N[C@H]1C(=O)N[C@@H](CC(N)=O)C(=O)N[C@H]2C(=O)N[C@H]3C(=O)N[C@H](C(=O)N[C@H](C(=O)O)c4cc(O)cc(O)c4-c4cc3ccc4O)[C@H](O)c3ccc(c(Cl)c3)Oc3cc2cc(c3O[C@@H]2O[C@H](CO)[C@@H](O)[C@H](O)[C@H]2O[C@H]2C[C@](C)(N)[C@H](O)[C@H](C)O2)Oc2ccc(cc2Cl)[C@H]1O
1250

====

- Assay summary: Hemolytic activity in rabbit RBC measured after 1 hrs by microplate reader assay
- Format: toxicity, cell-based, Oryctolagus cuniculus, Erythrocyte
- Condition set: rabbit red blood cells (RBC)
Reported HC50 at 1 h values are given for each entry in this list.
Give a bare numeral; the unit µg/mL is implied.

Below, each entry is followed by its recorded HC50 at 1 h result.
Compound: CC(C)[C@H](N)C(=O)Nc1ccc(I)cc1
Readout unit: µg/mL
HC50 at 1 h: 794
--
Compound: C#Cc1ccc(NC(=O)[C@@H](N)C(C)C)cc1
Readout unit: µg/mL
HC50 at 1 h: 891
--
Compound: C#Cc1ccc(NC(=O)[C@@H](N)C(C)CC)cc1 (stereo partly drawn)
Readout unit: µg/mL
HC50 at 1 h: 813
--
Compound: C#Cc1ccc(NC(=O)[C@@H](N)CC(C)C)cc1
Readout unit: µg/mL
HC50 at 1 h: 789
--
Compound: CCCCCCNC(=O)[C@@H](N)C(C)C
Readout unit: µg/mL
HC50 at 1 h: 392

# context switch: different compound, same HC50 at 1 h
Read off the recorded HC50 at 1 h for C#Cc1cccc(NC(=O)[C@@H](N)C(C)C)c1
836

====

- Test system: Escherichia coli
- Assay summary: Antibacterial activity against Escherichia coli ATCC25922 assessed as zone of inhibition incubated for 12 hrs by disc diffusion method
- Format: functional, ATCC 25922
Measured parameter: diameter of the inhibition zone (DIZ) (mm)
Give a bare numeral; the unit mm is implied.

Below, each entry is followed by its recorded diameter of the inhibition zone (DIZ) result.
Molecule: CC(C)[C@H](N)C(=O)Nc1ccc(Cl)cc1
diameter of the inhibition zone (DIZ) [mm]: 10
--
Molecule: C#Cc1cccc(NC(=O)[C@H](N)C(C)C)c1
diameter of the inhibition zone (DIZ) [mm]: 10
--
Molecule: C#Cc1cccc(NC(=O)[C@@H](N)Cc2ccccc2)c1
diameter of the inhibition zone (DIZ) [mm]: 10

# context switch: different molecule, same diameter of the inhibition zone (DIZ)
Read off the recorded diameter of the inhibition zone (DIZ) for CC(C)[C@H](N)C(=O)Nc1ccc(Br)cc1
11.8

====

- Tested on: Staphylococcus aureus
- Assay summary: Antibacterial activity against methicillin-resistant Staphylococcus aureus ATCC 33591 assessed as MIC incubated for 12 hrs
Measured parameter: MIC (µg/mL)
Give a bare numeral; the unit µg/mL is implied.

Below, each entry is followed by its recorded MIC result.
Smiles entry: C#Cc1cccc(NC(=O)[C@@H](N)C(C)C)c1
Readout unit: µg/mL
MIC: 20
--
Smiles entry: C#Cc1ccc(NC(=O)[C@@H](N)C(C)C)cc1
Readout unit: µg/mL
MIC: 5

Read off the recorded MIC for C#Cc1cccc(NC(=O)[C@H](N)C(C)C)c1
20

Read off the recorded MIC for CC(C)[C@H](N)C(=O)Nc1ccc(Cl)cc1
78

====

Reported MIC values are given for each entry in this list.
- Tested on: Staphylococcus aureus
- Assay summary: Antibacterial activity against methicillin-resistant Staphylococcus aureus ATCC 33591 assessed as MIC incubated for 12 hrs

Compound: CCCCCCNC(=O)[C@@H](N)C(C)C
MIC: 78 µg/mL
//
Compound: CN[C@H](CC(C)C)C(=O)N[C@H]1C(=O)N[C@@H](CC(N)=O)C(=O)N[C@H]2C(=O)N[C@H]3C(=O)N[C@H](C(=O)N[C@H](C(=O)O)c4cc(O)cc(O)c4-c4cc3ccc4O)[C@H](O)c3ccc(c(Cl)c3)Oc3cc2cc(c3O[C@@H]2O[C@H](CO)[C@@H](O)[C@H](O)[C@H]2O[C@H]2C[C@](C)(N)[C@H](O)[C@H](C)O2)Oc2ccc(cc2Cl)[C@H]1O
MIC: 1.25 µg/mL
//
Compound: C#Cc1ccc(NC(=O)[C@@H](N)Cc2c[nH]c3ccccc23)cc1
MIC: 78 µg/mL
//
Compound: C#Cc1cccc(NC(=O)[C@@H](N)Cc2ccccc2)c1
MIC: 20 µg/mL
//
Compound: CC(C)[C@H](N)C(=O)Nc1ccc(Br)cc1
MIC: 78 µg/mL
//
Compound: C#Cc1ccc(NC(=O)[C@@H](N)C(C)CC)cc1 (stereo not given in full)
MIC: 39 µg/mL
//
Compound: C[C@H]1COc2c(N3CCN(C)CC3)c(F)cc3c(=O)c(C(=O)O)cn1c23.C[C@H]1COc2c(N3CCN(C)CC3)c(F)cc3c(=O)c(C(=O)O)cn1c23.O
MIC: 1.25 µg/mL
//
Compound: CC(C)[C@H](N)C(=O)Nc1ccc(I)cc1
MIC: 20 µg/mL
//
Compound: C#Cc1ccc(NC(=O)[C@@H](N)Cc2ccccc2)cc1
MIC: 10 µg/mL

# context switch: different compound, same MIC
Read off the recorded MIC for C#Cc1ccc(NC(=O)[C@@H](N)CC(C)C)cc1
10 µg/mL

====

- System: Staphylococcus aureus
- Assay summary: Antibacterial activity against Staphylococcus aureus ATCC 6538 assessed as reduction in microbial growth after 24 hrs by broth dilution method
- Format: functional
Measured parameter: MIC (µg/mL)
Give a bare numeral; the unit µg/mL is implied.

Below, each entry is followed by its recorded MIC result.
Smiles entry: CC(C)[C@H](N)C(=O)Nc1ccc(Br)cc1
MIC, µg/mL: 39

Smiles entry: C#Cc1cccc(NC(=O)[C@@H](N)Cc2ccccc2)c1
MIC, µg/mL: 20

Read off the recorded MIC for C#Cc1cccc(NC(=O)[C@@H](N)C(C)C)c1
10

====

- Assay summary: Selectivity index, HC50 for hemolytic activity in rabbit RBC to MIC for antibacterial activity against methicillin-resistant Staphylococcus aureus ATCC 33591
- Format: toxicity
- Condition set: rabbit red blood cells (RBC), read-out: Selectivity Index
Measured parameter: selectivity ratio
Output spec: single numeric token, no unit.

Compound: C#Cc1ccc(NC(=O)[C@@H](N)C(C)CC)cc1 (stereo partly drawn)
Measured parameter: selectivity ratio
Experimental result: 20.8
//
Compound: C#Cc1ccc(NC(=O)[C@@H](N)CC(C)C)cc1
Measured parameter: selectivity ratio
Experimental result: 158
//
Compound: CC(C)[C@H](N)C(=O)Nc1ccc(I)cc1
Measured parameter: selectivity ratio
Experimental result: 39.7

Read off the recorded selectivity ratio for C#Cc1ccc(NC(=O)[C@@H](N)C(C)C)cc1
356

Read off the recorded selectivity ratio for CCCCCCNC(=O)[C@@H](N)C(C)C
10

Read off the recorded selectivity ratio for C#Cc1cccc(NC(=O)[C@@H](N)C(C)C)c1
83.6

====

- Tested on: Staphylococcus aureus
- Assay summary: Antibacterial activity against Staphylococcus aureus ATCC 6538 assessed as reduction in microbial growth after 24 hrs by broth dilution method
- Assay type: functional
MIC less than 20 µg/mL is T; MIC greater than or equal to 20 µg/mL is F.

Check out these entries, answers already filled in.
Compound: CC(C)[C@H](N)C(=O)Nc1ccccc1
Tested target: Staphylococcus aureus
Group: F

Compound: C#Cc1ccc(NC(=O)[C@@H](N)CC(C)C)cc1
Tested target: Staphylococcus aureus
Group: T

Compound: C[C@H]1COc2c(N3CCN(C)CC3)c(F)cc3c(=O)c(C(=O)O)cn1c23.C[C@H]1COc2c(N3CCN(C)CC3)c(F)cc3c(=O)c(C(=O)O)cn1c23.O
Tested target: Staphylococcus aureus
Group: T

Compound: Cc1ccc(NC(=O)[C@@H](N)C(C)C)cc1
Tested target: Staphylococcus aureus
Group: F

Compound: C#Cc1cccc(NC(=O)[C@H](N)C(C)C)c1
Tested target: Staphylococcus aureus
Group: T

Continue with the next compound.
Below 20 µg/mL on MIC? Entry C#Cc1ccc(NC(=O)[C@@H](N)Cc2c[nH]c3ccccc23)cc1
F

====

Reported MIC values are given for each entry in this list.
- Test system: Klebsiella pneumoniae
- Assay summary: Antibacterial activity against Klebsiella pneumoniae ATCC 700603 assessed as reduction in microbial growth after 24 hrs by broth dilution method
- Type: functional
Give a bare numeral; the unit µg/mL is implied.

Below, each entry is followed by its recorded MIC result.
Compound: CC(C)[C@H](N)C(=O)Nc1ccc(I)cc1
MIC / µg/mL: 39

Compound: C#Cc1ccc(NC(=O)[C@@H](N)C(C)C)cc1
MIC / µg/mL: 5

Compound: C#Cc1ccc(NC(=O)[C@@H](N)C(C)CC)cc1 (stereo not given in full)
MIC / µg/mL: 39

Compound: CCCCCCNC(=O)[C@@H](N)C(C)C
MIC / µg/mL: 78

# context switch: different compound, same MIC
Read off the recorded MIC for C#Cc1cccc(NC(=O)[C@@H](N)C(C)C)c1
20

Measured values drawn from ChEMBL document CHEMBL5038623 for this set.
